Source of measurements: the supplement of paper PMC8285479

System: NCI-H1944
test protocol: normalised cell viability (NPI; 0 = phenylarsine oxide control, 1 = DMSO control) (fraction of DMSO control); higher = more viable cells (less compound toxicity)
cond: glucocorticoid arm: vehicle; compound 5 µM; 6 days
Counter-ions that a name gives are not always drawn. Over roughly 1,900 compounds, “normalised cell viability (NPI; 0 = phenylarsine oxide control, 1 = DMSO control)” has its median near 1; the lowest 2% begin near 0.039. Shown is part of a subset that was picked to be rich in the lowest values.
recorded metric: normalised cell viability
Lab note: jot the number down without any unit.

Consider Cc1nc(N=Nc2ccc(C(=O)O)cc2)c(COP(=O)(O)O)c(C=O)c1O . Its measured normalised cell viability is 1

Consider O=C(/C=C/c1ccc2ccccc2n1)c1ccncc1 . Its measured normalised cell viability is 1.01

Consider NCc1c[nH]c(=S)n1[C@H]1CCc2c(F)cc(F)cc2C1 [Nepicastat (SYN-117) HCl] . Its measured normalised cell viability is 0.991

Consider CN(C)CCC(c1ccc(Br)cc1)c1ccccn1 (single isomer, unassigned; (+)) [(+)-Brompheniramine maleate] . Its measured normalised cell viability is 1.02

Consider CN(C)CCSSCCNC(=O)C1CCN(C(=O)CSc2ccc(Cl)cc2)CC1 . Its measured normalised cell viability is 0.997

Consider CO[C@@]12[C@H](COC(N)=O)C3=C(C(=O)C(C)=C(N)C3=O)N1C[C@@H]1N[C@@H]12 [Mitomycin; Mitomycin C] . Its measured normalised cell viability is 0.000408

Consider CC(Cc1ccccc1)Nc1ncnc2c1ncn2C1OC(CO)C(O)C1O (stereo not drawn) [R(-)-N6-(2-Phenylisopropyl)adenosine] . Its measured normalised cell viability is 1.02

Consider CC(C)NCC(O)c1ccc(O)c(O)c1 (racemic) [(±)-Isoproterenol hydrochloride] . Its measured normalised cell viability is 1.02

Consider Nc1nccc2c1ncn2[C@@H]1O[C@H](CO)[C@@H](O)[C@H]1O [3-deazaadenosine] . Its measured normalised cell viability is 0.968

Consider OC[C@H]1O[C@@H](n2cnc3c2N=CNC[C@H]3O)C[C@@H]1O [Pentostatin] . Its measured normalised cell viability is 1.01

====

Can you tell me normalised cell viability for the items I'm about to list?
System: NCI-H1944;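 also: CTB read-out in 384-well plates, triplicate wells, NPI normalised per plate against 1 µM phenylarsine oxide (0) and 0.1% DMSO (1) controls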
test protocol: normalised cell viability (NPI; 0 = phenylarsine oxide control, 1 = DMSO control) (fraction of DMSO control); NCI-H1944 is a non-small cell lung cancer line; higher = more viable cells (less compound toxicity)
cond: glucocorticoid arm: hydrocortisone 2.75 uM pre-treated 2 days and continued; compound 1 µM; 6 days
Where a name gives a salt, the structure may show the parent alone. Over roughly 1,900 compounds, “normalised cell viability (NPI; 0 = phenylarsine oxide control, 1 = DMSO control)” has its median near 1; the lowest 2% begin near 0.039. This is one part of a sample in which the lowest values are shown more often than they occur.
Lab note: jot the number down without any unit.

Consider OC1(c2ccc(Cl)cc2)CCN(Cc2c[nH]c3ccccc23)CC1 . Its measured normalised cell viability is 1

Consider CNCc1ccc(C)c(NC(=O)c2ccc(Nc3nc(-c4ccccc4)c4ccccc4n3)cc2)c1 . Its measured normalised cell viability is 0.995

Consider COc1ccc(CCNC[C@@H](O)c2ccc(O)cc2)cc1OC [R(-)-Denopamine] . Its measured normalised cell viability is 1.02

Consider CCN(CC)CCCC(C)Nc1ccnc2cc(Cl)ccc12 (stereo not drawn) [Chloroquine diphosphate] . Its measured normalised cell viability is 1

Consider Cc1cc(N2CCOCC2)cc2[nH]c(-c3c(NCC(O)c4cccc(Cl)c4)cc[nH]c3=O)nc12 (stereo not drawn) . Its measured normalised cell viability is 0.373

Consider CN(C)C(=O)C(CCN1CCC(O)(c2ccc(Cl)cc2)CC1)(c1ccccc1)c1ccccc1 [Loperamide HCl] . Its measured normalised cell viability is 1.05

Consider OCCn1cc(-c2cnc3nnn(Cc4ccc5ncccc5c4)c3n2)cn1 . Its measured normalised cell viability is 1.02

Consider Nc1nccc2c1ncn2[C@@H]1O[C@H](CO)[C@@H](O)[C@H]1O . Its measured normalised cell viability is 0.996

Consider NC(=O)c1cc[n+](CC2=C(C(=O)O)N3C(=O)[C@@H](NC(=O)C(c4ccccc4)S(=O)(=O)[O-])[C@H]3SC2)cc1 (stereo partly drawn) [Cefsulodin sodium salt hydrate] . Its measured normalised cell viability is 1.02

Consider O=Nc1ccc2oc(=O)ccc2c1 . Its measured normalised cell viability is 1.03

Consider CCCCC#Cc1nc(N)c2ncn([C@@H]3O[C@H](C(=O)NCC)[C@@H](O)[C@H]3O)c2n1 . Its measured normalised cell viability is 1.01

Consider O=C(O)c1ccnc(C(=O)O)c1 . Its measured normalised cell viability is 0.996

Consider CCCCc1nc2cc(/C=C/C(=O)NO)ccc2n1CCN(CC)CC [Pracinostat (SB939)] . Its measured normalised cell viability is 1

Consider NS(=O)(=O)c1cc(C(=O)O)c(NCc2ccco2)cc1Cl [Furosemide] . Its measured normalised cell viability is 0.999

Consider CCN(CC)CCCC(C)Nc1nc(C)cc(Nc2ccc3nc(C)cc(N)c3c2)n1 (stereo not drawn) . Its measured normalised cell viability is 0.888

Consider Cc1cc(Cn2cnc3c2C[C@@H](C(=O)O)N(C(=O)C(c2ccccc2)c2ccccc2)C3)ccc1N . Its measured normalised cell viability is 1.02

Consider N=c1ccn2c(n1)O[C@H]1[C@H](O)[C@@H](CO)O[C@H]12 [Ancitabine hydrochloride] . Its measured normalised cell viability is 0.652

Consider CC(C=CC(=O)NO)=CC(C)C(=O)c1ccc(N(C)C)cc1 (stereo not drawn) . Its measured normalised cell viability is 0.937

Consider CCCCCCCCCCCCCCCCCC(=O)OC(CC(=O)O)C[N+](C)(C)C (racemic) [DL-Stearoylcarnitine chloride] . Its measured normalised cell viability is 1.01

Consider CCCCN(Cc1ccc(C(=O)NO)cc1)C(=O)Nc1ccccc1 . Its measured normalised cell viability is 0.97

Consider COC(=O)C(N)Cc1ccc(Cl)cc1 (racemic) [DL-p-Chlorophenylalanine methyl ester hydrochloride] . Its measured normalised cell viability is 1.02

Consider CCN1CCN(Cc2ccc(-c3cc4c(N[C@H](C)c5ccccc5)ncnc4[nH]3)cc2)CC1 . Its measured normalised cell viability is 0.885

Consider O=C1O/C(=C/Br)CCC1c1cccc2ccccc12 (stereo not drawn) . Its measured normalised cell viability is 1.01
